Hey, just so you know, these numbers are from patent US20260109776A1.

Molecular target: T1, mouse CD40 on cells (mouse, UniProt P27512 20-289)
T1 construct: whole, on cells; also called mouse CD40 on HEK293 cells; CD40 on mouse B cells
T1 sequence (looked up): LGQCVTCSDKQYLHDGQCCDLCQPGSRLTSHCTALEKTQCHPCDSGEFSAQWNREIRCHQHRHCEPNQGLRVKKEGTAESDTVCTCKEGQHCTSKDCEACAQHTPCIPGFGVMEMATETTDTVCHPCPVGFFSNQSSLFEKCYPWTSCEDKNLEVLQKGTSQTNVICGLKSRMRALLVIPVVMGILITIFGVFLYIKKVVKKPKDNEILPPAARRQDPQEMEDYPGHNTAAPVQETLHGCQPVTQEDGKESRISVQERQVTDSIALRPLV
Assay: flow cytometry, HEK293 transfectants vs control cells
Reported fold over control (gMFI) values are given for each entry in this list.
State the answer as a number, implicitly in fold.

33H9 (antibody, IgG4, V domains shown, also called 4897-1) VH: QVQLVESGGGVVQPGRSLRLSCAASGFTFSSHGMHWVRQPPGKGLEWVAVIWYDGSNEYYGDSVKGRFTISRDNSKNTLYLQMNSLRVEDTAVYYCTRGGGHWNYEGHYYGMDVWGQGTTVTVSS VL: QAVPTQPSSLSASPGASASLTCTLRSGINVGSSRIYWYQQKPGSPPQFLLRYTSDSDKLQGSGVPSRFSGSKDASANAGLLLISGLQSEDEADYYCMIWHSSAVVFGGGTKLTVLG	0.9
29H10 (antibody, V domains shown, also called 4877-1) VH: QVQLVQSGAEVTKPGASVKVSCKASGYTFAGYYMHWVRQAPGQGLEWMGWINPHSGGTNYAQKFQDRVTMTRDTSINTAYMELSRLRSDDTAVYYCARERISMVRGVGHNWFAPWGQGTLVTVSS VL: DIQMTQSPSSLSASVGDRVTITCRASQDISNNLAWFQQKPGKPPKSLMYAASSLHSGVPSTFSGSGSGTDFTFTISSLQPEDFATYYCQQYNSYPLTFGGGTKVEIRR	0.8
30A12 (antibody, IgG4, V domains shown, also called 4878-1) VH: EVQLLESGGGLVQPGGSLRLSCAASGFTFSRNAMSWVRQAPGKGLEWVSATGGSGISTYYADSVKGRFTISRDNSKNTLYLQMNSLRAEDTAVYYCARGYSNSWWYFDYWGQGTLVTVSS VL: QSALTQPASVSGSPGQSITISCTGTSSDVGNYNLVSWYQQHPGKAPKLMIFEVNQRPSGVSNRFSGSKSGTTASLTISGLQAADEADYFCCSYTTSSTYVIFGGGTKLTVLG	1.3

Lab note: next binder to report on.
// query Query: fold over control (gMFI); subject: 39C2 (antibody, IgG4, V domains shown, also called 4887-1) VH: QVQLVQSGTEVKKPGASVKVSCKASGYTFPGYYMHWVRQAPGQGLEWMGWINPDSGGTKYTQKFQGRVTLTRDASVSTAYIDLNRLRSDDTAVYYCARERCRTTNCYLDYWGQGSLVTVSS VL: QSALTQPASVSGSPGQSITISCTGTSSDVGNYNLVSWYQQHPGKAPKLMIYEVNRRPSGVSNRFSGSKSGNTASLTISGLQAEDEAEYYCCSYAGRDTFVVFGGGTKLTVLG
// result 0.9
